- Test system: RXF 393 renal
- Experimental protocol: NCI tumour cell line growth inhibition, 48 h

Compound | TGI
COc1ccc(/C=C2\C=Cc3ccccc32)cc1OC | > 100 µM
O=C(c1ccccc1)c1ccc(C(c2c(O)c3ccccc3oc2=O)c2c(O)c3ccccc3oc2=O)cc1 | > 69.2 µM
COc1cccc(N2C(=O)c3c(c4[nH]c5ccccc5c4c4ccc(C(C)(C)C)cc34)C2=O)c1 | > 100 µM
CCCC1NC(=O)C(CC(C)C)NC(=O)c2cccc(n2)C(=O)NC(CC(C)C)C(=O)NC(CCC)C(=O)NC(C(=O)OC)CCCCNC1=O (stereo not given) | > 100 µM
Cc1ccc(C)c(NC(=O)C(=O)C2C(=O)C3=C(CC2(C)C)Nc2ccccc2S3)c1 (stereo not given) | > 100 µM
CNC(=S)/C(=N\Nc1nc[nH]c1C(N)=O)C(N)=S | > 100 µM
CCOC(=O)C1C(=O)CC(O)(OCC)C(C(=O)OCC)C1c1ccc(OC)cc1 (stereo not given) | > 100 µM
Cc1c(N2C(=O)/C(=C/C=C/c3ccccc3)N=C2c2ccccc2)c(=O)n(-c2ccccc2)n1C | 33.2 µM
C=C1C(=O)O[C@@H]2C[C@@H]1CC[C@]1(C)O[C@H]1CC[C@@]1(C)O[C@@H]1CC[C@@]2(C)O | > 100 µM
CCC1=C(C)/C(=C/c2[nH]c(C)c(C(=O)CCCCC(=O)OC)c2C)N=C1c1ccc[nH]1 | 38.6 µM
CCOC(=O)/C(C#N)=C/c1ccc2c(-c3c(OCC)ccc4cc(/C=C(\C#N)C(=O)OCC)ccc34)c(OCC)ccc2c1 | > 100 µM
Clc1ccc(-c2nn3c(CCCCCCCCc4nnc5sc(-c6ccc(Cl)cc6)nn45)nnc3s2)cc1 | > 62.4 µM
O=[N+]([O-])c1ccc(N2CCN(Cc3ccccc3)CC2)c2c1no[n+]2[O-] | 2.76 µM
Cc1ccc(-c2c(C#N)c(-c3ccc(Cl)cc3)c(C#N)c(=O)n2NS(=O)(=O)c2ccccc2)cc1 | > 100 µM
CCN(CC)CCn1c(C(C)(C)C)nc2ccccc21 | > 100 µM
NC(=S)/N=C/c1c(O)c2ccccc2oc1=O | 86.4 µM
COc1nc2c(OC)cccc2c(OC)c1C=O | > 100 µM
CCOC(=O)c1c(C)n(Cc2ccccc2)c(=O)c2ccccc2c(=O)c2c(=O)ccc(=O)c1=2 | 40.7 µM
CC(C)(C)OC(=O)[N+](=N)C(=O)C1CCC(=O)N1C(=O)OCc1ccccc1 (stereo not given) | > 100 µM
CC1=C(/C=C/C(C)=C/C=C/C(C)=C/C(=O)OCC2OC(n3cc(F)c(=O)[nH]c3=O)CC2OC(=O)/C=C(C)/C=C/C=C(C)/C=C/C2=C(C)CCCC2(C)C)C(C)(C)CCC1 (stereo not given) | > 100 µM
CC(C(=O)N1C(=O)N(C(=O)C(C)C(O)c2ccccc2)C(c2ccccc2)C1c1ccccc1)C(O)c1ccccc1 (stereo not given) | 28.1 µM
CC1=CC=NN2C(=O)[C@H](C)C2C1 (stereo not given in full) | > 100 µM
CC(C)(C)[OH+][O-].[O-]c1ccc(Cl)cc1C=Nc1ccc(Cl)cc1[O-].[O]=[V] | 36.6 µM
CCn1c(=O)c(-c2ccn[nH]2)cc2c(C)nc(N)nc21 | 2.47 µM
CCCc1c2c([nH]c(=O)c1C)C(=O)c1[nH]c(=O)c(C)c(CCC)c1C2=O | 69.2 µM

Recorded values, source PubChem BioAssay (NCI).
